target: ABHD14B; test: pooled miR-30 sensor sort-seq; sequence = guide strand; details: shRNA; further: reference of the scale not given here
Each entry below carries its recorded sensor-assay potency score (higher = more potent).
VALUE_KIND: sensor-assay potency score (higher = more potent)

- SEQUENCE_DATA: "TTCTGCCAGGTCTCGGAGGAGA"
  ENDPOINT_VALUE: -1.13
- SEQUENCE_DATA: "TCCATATACAATCAGAGCTGGA"
  ENDPOINT_VALUE: -1.62
- SEQUENCE_DATA: "TTGATTTTGTCAGTGCAGATGG"
  ENDPOINT_VALUE: -0.728
- SEQUENCE_DATA: "CTGGTCTCCATATACAATCAGA"
  ENDPOINT_VALUE: -2.16
- SEQUENCE_DATA: "AAAGCTGGTCTGACCCATGGGG"
  ENDPOINT_VALUE: -0.273
- SEQUENCE_DATA: "ATAGTTGGCAGCATTGATTTTG"
  ENDPOINT_VALUE: -0.758
- SEQUENCE_DATA: "TGGACTGATCACAACCGGGGGG"
  ENDPOINT_VALUE: -0.281

====

molecular target: SLC22A1; test: pooled miR-30 sensor sort-seq; sequence = guide strand; settings: shRNA
VALUE_KIND: sensor-assay potency score (higher = more potent)

- SEQUENCE_DATA: "TGATAGAGCACAGAGTCCGTGA"
  ENDPOINT_VALUE: -0.157
- SEQUENCE_DATA: "TTCGGTGACATCCTCTTCGAGG"
  ENDPOINT_VALUE: 0.00261
- SEQUENCE_DATA: "TTTATTGCTTCAGTGTTTCTTT"
  ENDPOINT_VALUE: 0.132
- SEQUENCE_DATA: "TATCTTTATTGCTTCAGTGTTT"
  ENDPOINT_VALUE: -0.476
- SEQUENCE_DATA: "TTTGTGATAACAGCCACCGAGG"
  ENDPOINT_VALUE: -0.671
- SEQUENCE_DATA: "TTTTGTGATAACAGCCACCGAG"
  ENDPOINT_VALUE: -0.543
- SEQUENCE_DATA: "TGGTACATGATCGCCACCGTTC"
  ENDPOINT_VALUE: -1.08
- SEQUENCE_DATA: "ATGATTATGATGTTTAACCAGT"
  ENDPOINT_VALUE: -1.09

====

target: NCR3; test: pooled miR-30 sensor sort-seq; sequence = guide strand; details: shRNA
# if value of sensor-assay potency score (higher = more potent) reaches -2, tag class 1; if it stays below, tag class 0

- SEQUENCE_DATA: "ATGTTCTTTCTCCACCACCAGC"
  CAT: "class 0"
- SEQUENCE_DATA: "TTCCAGGTCAGACATTTGCCCT"
  CAT: "class 1"
- SEQUENCE_DATA: "TTTGCCCTGGTAATAGACGGTG"
  CAT: "class 1"
- SEQUENCE_DATA: "TTCTTTCTCCACCACCAGCCGA"
  CAT: "class 1"
- SEQUENCE_DATA: "ACTCTGCACACGTAGATGCTGG"
  CAT: "class 1"
- SEQUENCE_DATA: "TCCAGGTCAGACATTTGCCCTG"
  CAT: "class 1"

====

molecular target: ARHGAP18; assay: pooled miR-30 sensor sort-seq; sequence = guide strand; conditions: shRNA
# if value of sensor-assay potency score (higher = more potent) reaches 0.2, tag rule met; if it stays below, tag rule not met

- SEQUENCE_DATA: "TTGCACTCGAATCACTCCCTGA"
  STUDY_SYSTEM: "ARHGAP18"
  CAT: "rule not met"
- SEQUENCE_DATA: "TTTGACAACAACCACCTCTTGA"
  STUDY_SYSTEM: "ARHGAP18"
  CAT: "rule met"
- SEQUENCE_DATA: "TTGGTTTACAATAAACTTGGGA"
  STUDY_SYSTEM: "ARHGAP18"
  CAT: "rule met"
- SEQUENCE_DATA: "TTCTCCTTTCTTGAGAGTCTGG"
  STUDY_SYSTEM: "ARHGAP18"
  CAT: "rule not met"
- SEQUENCE_DATA: "TTCTATCCAATAGTCTTCCATA"
  STUDY_SYSTEM: "ARHGAP18"
  CAT: "rule not met"
- SEQUENCE_DATA: "ATTTGTACTCTTATCTTGCTTT"
  STUDY_SYSTEM: "ARHGAP18"
  CAT: "rule not met"
- SEQUENCE_DATA: "TTTATTTACACTCTTGACTCAG"
  STUDY_SYSTEM: "ARHGAP18"
  CAT: "rule not met"
- SEQUENCE_DATA: "TTCTCCATAACTTTGATGGTGG"
  STUDY_SYSTEM: "ARHGAP18"
  CAT: "rule not met"
- SEQUENCE_DATA: "TTATTTACACTCTTGACTCAGC"
  STUDY_SYSTEM: "ARHGAP18"
  CAT: "rule not met"
- SEQUENCE_DATA: "TTTCTTTTGATTCTCTCTGTTG"
  STUDY_SYSTEM: "ARHGAP18"
  CAT: "rule not met"

====

target: SHOX2; test: pooled miR-30 sensor sort-seq; sequence = guide strand; conditions: shRNA
VALUE_KIND: sensor-assay potency score (higher = more potent)

- SEQUENCE_DATA: "TTTCTACATTTAGCTCTTCGAT"
  ENDPOINT_VALUE: -1.28
- SEQUENCE_DATA: "TTGCGATCTTTCAGCTCCGGGG"
  ENDPOINT_VALUE: -1.14
- SEQUENCE_DATA: "TATGAGAACACCTTTATGGAGT"
  ENDPOINT_VALUE: -0.114
- SEQUENCE_DATA: "TACATTTAGCTCTTCGATTTTG"
  ENDPOINT_VALUE: -1.22
- SEQUENCE_DATA: "TTTTCTTGTTTTCTACATTTAG"
  ENDPOINT_VALUE: -1.51
- SEQUENCE_DATA: "TTCTACATTTAGCTCTTCGATT"
  ENDPOINT_VALUE: -0.898
- SEQUENCE_DATA: "TCCAGGGTGAAATTGGTCCGAC"
  ENDPOINT_VALUE: -1.19
- SEQUENCE_DATA: "TTCTTGCTGGTGGTCTTGGCGG"
  ENDPOINT_VALUE: -1.37
- SEQUENCE_DATA: "TTTATGGAGTTGATTTTCTTGT"
  ENDPOINT_VALUE: -0.402
- SEQUENCE_DATA: "TTTGCGATCTTTCAGCTCCGGG"
  ENDPOINT_VALUE: -1.2

====

molecular target: CTHRC1; experiment: pooled miR-30 sensor sort-seq; sequence = guide strand; settings: shRNA
# if value of sensor-assay potency score (higher = more potent) reaches -0.9, tag Satisfied; if it stays below, tag Not satisfied

- SEQUENCE_DATA: "ATGAACTCCATGAACACTGCTT"
  CAT: "Satisfied"
- SEQUENCE_DATA: "TTTGTAAATGTACACTCCGCAA"
  CAT: "Not satisfied"
- SEQUENCE_DATA: "TAGAGCACTATTTGAACGCATC"
  CAT: "Not satisfied"
- SEQUENCE_DATA: "TTGAATGTGAAATACCAACGCT"
  CAT: "Satisfied"
- SEQUENCE_DATA: "ATAAATTATAGCTTCAATGGGA"
  CAT: "Satisfied"
- SEQUENCE_DATA: "TAATTCAATGAACTCCATGAAC"
  CAT: "Not satisfied"

====

Each entry below carries its recorded sensor-assay potency score (higher = more potent).
target: SLC22A8; assay: pooled miR-30 sensor sort-seq; sequence = guide strand; details: shRNA
VALUE_KIND: sensor-assay potency score (higher = more potent)

- SEQUENCE_DATA: "TTGCACACCAAGTCCCACTCTG"
  ENDPOINT_VALUE: 0.471
- SEQUENCE_DATA: "TTTGTTGGAGTTGCACACCAAG"
  ENDPOINT_VALUE: -1.22
- SEQUENCE_DATA: "AACTATAGTAGGCAAAACCGGT"
  ENDPOINT_VALUE: -1.07
- SEQUENCE_DATA: "TTCACTTGTGTAGAGGAAGAGG"
  ENDPOINT_VALUE: -0.683
- SEQUENCE_DATA: "TTGAAGACAGCCACCCGCCGGA"
  ENDPOINT_VALUE: -0.0956
- SEQUENCE_DATA: "TAATTCACTTGTGTAGAGGAAG"
  ENDPOINT_VALUE: -0.618

====

biological target: CPD; assay: pooled miR-30 sensor sort-seq; sequence = guide strand; conditions: shRNA
VALUE_KIND: sensor-assay potency score (higher = more potent)

- SEQUENCE_DATA: "TTAGGATACATATTCTTGCAAG"
  STUDY_SYSTEM: "CPD"
  ENDPOINT_VALUE: -0.612
- SEQUENCE_DATA: "TTAGTGATCTTCGATTCTGTTC"
  STUDY_SYSTEM: "CPD"
  ENDPOINT_VALUE: -0.307
- SEQUENCE_DATA: "TTTCACTCCAATGTGAACCTTT"
  STUDY_SYSTEM: "CPD"
  ENDPOINT_VALUE: 0.41
- SEQUENCE_DATA: "TTGAAGTACAGTCTTTCTCTTG"
  STUDY_SYSTEM: "CPD"
  ENDPOINT_VALUE: -0.337
- SEQUENCE_DATA: "TTACACTTATTGAATCTCCTTC"
  STUDY_SYSTEM: "CPD"
  ENDPOINT_VALUE: 0.411
- SEQUENCE_DATA: "TTAGGTATAGCAACTGTGCTAG"
  STUDY_SYSTEM: "CPD"
  ENDPOINT_VALUE: 0.733
- SEQUENCE_DATA: "TATTCTTGCAAGGTCTACCTTG"
  STUDY_SYSTEM: "CPD"
  ENDPOINT_VALUE: -0.366
- SEQUENCE_DATA: "TTGATTGAGCAGATGCACCAAA"
  STUDY_SYSTEM: "CPD"
  ENDPOINT_VALUE: -0.419
- SEQUENCE_DATA: "TTCAACAGCAGTTCTCTTCCAA"
  STUDY_SYSTEM: "CPD"
  ENDPOINT_VALUE: 0.56
- SEQUENCE_DATA: "TTGACAGTCACATTCTTGGTAA"
  STUDY_SYSTEM: "CPD"
  ENDPOINT_VALUE: -0.225
- SEQUENCE_DATA: "TTTGTTTGTAAATAGTTCCAGT"
  STUDY_SYSTEM: "CPD"
  ENDPOINT_VALUE: 0.147
- SEQUENCE_DATA: "TAGCAGTTGATACAGCCTCTGT"
  STUDY_SYSTEM: "CPD"
  ENDPOINT_VALUE: -1.16
- SEQUENCE_DATA: "TTGATTCATTGTTTGAATCTGT"
  STUDY_SYSTEM: "CPD"
  ENDPOINT_VALUE: 0.522
